- Test system: A549
- Assay Protocol: Cytotoxicity of spisulosine analogs, A549 (after Berjeron et al)
- Type: cell-based
- Test Conditions: Homo sapiens, A549, read-out: Cytotoxicity IC50 A549
Measurement Type: IC50

According to the records, this molecule CCCCCCCCCCCCCCC[C@@H](OP(=O)(OC)OC)[C@H](C)N displays IC50 of 1.27 µM

---

- Test system: MEL28
- Assay Protocol: Cytotoxicity of spisulosine analogs, MEL28 (after Berjeron et al)
- Format: cell-based
- Test Conditions: Homo sapiens, SK-MEL-28, MEL28; methodology after Berjeron et al; NA=not active; read-out: Cytotoxicity IC50 MEL28
Measurement Type: pIC50
Scale for pIC50: -log10 of concentration given in mol/L; no unit attached.

Before answering, review these 2 worked examples.
CCCCCCCCCCCCCCC[C@@H](O)[C@@H](N)CC [drawing 58, (3S,4R)-3-Amino-4-nonadecanol]: 6.48
CCCCCCCCCCCCCCCC[C@@H](O)[C@H](C)N [drawing 37, (2S,3R)-2-Amino-3-nonadecanol]: 7.48

Now look at this entry.
Noted for CCCCCCCCCCCCCCC[C@H](Cl)[C@H](C)N : its pIC50 reads 6.48
